- experimental-target: Mushroom tyrosinase (Agaricus bisporus, UniProt O42713+Q00024+C7FF04+C7FF05)
- assay-explanation: Inhibition of Agaricus bisporus tyrosinase assessed as reduction in diphenolase activity by measuring L-DOPA oxidation after 30 mins
quantity-name: IC50 (mM)

These recorded examples may help you get a feel for the data.
COc1ccc(/C=N/NC(N)=S)cc1    0.44
NC(=S)N/N=C/c1ccc(Cl)cc1    0.84

[I] COc1cc(/C=N/NC(N)=S)ccc1O
[II] NC(=S)N/N=C/c1ccccc1
[III] NC(=S)N/N=C/c1ccc(NC(=S)N/N=C/c2ccccn2)cc1
Number of molecules to sort: 3. Sort criterion: IC50, ascending. Please write the labels in the order that was asked for.
I, II, III

[a] CCOc1ccc(/C=N/NC(N)=S)cc1
[b] NC(=S)N/N=C/c1ccc(Br)cc1
Endpoint returns the identifier whose IC50 is numerically larger, either a or b . Please identify the chosen entry by its label.
b
